Biological target: UGT2B7 (Homo sapiens, UniProt P16662)
Sequence (P16662 24-529): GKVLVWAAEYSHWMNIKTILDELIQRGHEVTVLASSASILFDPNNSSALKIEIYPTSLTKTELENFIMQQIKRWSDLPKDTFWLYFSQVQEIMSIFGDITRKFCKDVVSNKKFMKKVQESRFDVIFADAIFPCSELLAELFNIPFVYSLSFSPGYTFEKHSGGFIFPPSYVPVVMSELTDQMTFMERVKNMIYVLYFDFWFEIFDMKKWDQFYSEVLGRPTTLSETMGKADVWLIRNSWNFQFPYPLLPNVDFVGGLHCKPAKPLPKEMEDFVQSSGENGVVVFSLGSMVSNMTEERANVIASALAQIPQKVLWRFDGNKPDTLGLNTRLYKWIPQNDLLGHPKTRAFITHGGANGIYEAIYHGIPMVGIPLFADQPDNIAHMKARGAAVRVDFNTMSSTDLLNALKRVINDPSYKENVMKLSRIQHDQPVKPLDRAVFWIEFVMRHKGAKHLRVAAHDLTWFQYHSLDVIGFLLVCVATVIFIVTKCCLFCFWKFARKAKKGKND
Assay: UGT2B7 supersomes-catalyzed 4-MU glucuronidation inhibition
Conditions: 50 μM PC components; recombinant human UGT; mean of triplicate
propertyMeasured: residual activity 2B7

A selection of reference data follows.
[
  {
    "compoundString": "CCCCCC(=O)OC[C@H](COP(=O)([O-])OCC[N+](C)(C)C)OC(=O)CCCCC",
    "propertyMeasured": "residual activity 2B7",
    "result": "70.2%"
  },
  {
    "compoundString": "CC/C=C\\C/C=C\\C/C=C\\C/C=C\\C/C=C\\C/C=C\\CCC(=O)O[C@H](COC(=O)CCCCCCCCCCCCCCCCC)COP(=O)([O-])OCC[N+](C)(C)C",
    "propertyMeasured": "residual activity 2B7",
    "result": "73.6%"
  },
  {
    "compoundString": "CCCCCCCCCCCCCCCCCCC(=O)OC[C@H](COP(=O)([O-])OCC[N+](C)(C)C)OC(=O)CCCCCCCCCCCCCCCCCC",
    "propertyMeasured": "residual activity 2B7",
    "result": "23.1%"
  }
]

What does the record list as residual activity 2B7 for CCCCCCCCC(=O)OC[C@H](COP(=O)([O-])OCC[N+](C)(C)C)OC(=O)CCCCCCCC ?
79.6%

State the recorded residual activity 2B7 for this entry: CCCCCCCCCC(=O)OC[C@H](COP(=O)([O-])OCC[N+](C)(C)C)OC(=O)CCCCCCCCC
86.2%

// query residual activity 2B7 value for entry CCCCCCCCCCCCCCCC(=O)OC[C@H](COP(=O)([O-])OCC[N+](C)(C)C)OC(=O)CCCCCCCCCCCCCCC
60.3%

###

# maps each entry to its residual activity 1A1
Target: UniProtKB P22309
Sequence (P22309 26-533): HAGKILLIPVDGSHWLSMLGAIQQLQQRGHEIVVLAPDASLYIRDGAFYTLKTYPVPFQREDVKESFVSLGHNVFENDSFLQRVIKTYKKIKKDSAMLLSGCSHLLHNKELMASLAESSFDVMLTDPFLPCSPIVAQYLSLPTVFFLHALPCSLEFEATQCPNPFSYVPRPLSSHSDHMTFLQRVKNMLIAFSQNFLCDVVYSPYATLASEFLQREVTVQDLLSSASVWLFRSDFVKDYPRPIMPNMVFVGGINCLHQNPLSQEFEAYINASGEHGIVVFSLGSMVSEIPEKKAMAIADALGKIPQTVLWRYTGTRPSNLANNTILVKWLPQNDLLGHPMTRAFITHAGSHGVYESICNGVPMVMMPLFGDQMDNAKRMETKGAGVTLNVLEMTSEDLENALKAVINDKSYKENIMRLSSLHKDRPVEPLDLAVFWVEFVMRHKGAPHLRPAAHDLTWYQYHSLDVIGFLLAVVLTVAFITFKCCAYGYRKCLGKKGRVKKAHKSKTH
Assay: UGT1A1 supersomes-catalyzed 4-MU glucuronidation inhibition
Details: 50 μM LPC components; recombinant human UGT; mean of triplicate
Write down the numeric answer in % and omit the unit.

[
  {
    "compound": "CCCCCCCCCCCCCCC(=O)OC[C@@H](O)COP(=O)([O-])OCC[N+](C)(C)C",
    "propertyMeasured": "residual activity 1A1",
    "numericReadout": 162.9
  },
  {
    "compound": "CCCCCCCCCCC(=O)OC[C@@H](O)COP(=O)([O-])OCC[N+](C)(C)C",
    "propertyMeasured": "residual activity 1A1",
    "numericReadout": 167.3
  },
  {
    "compound": "CCCCCCCCCCCCC(=O)OC[C@@H](O)COP(=O)([O-])OCC[N+](C)(C)C",
    "propertyMeasured": "residual activity 1A1",
    "numericReadout": 160.6
  }
]

Form field: reported residual activity 1A1 of CCCCCCC(=O)OCC(O)COP(=O)([O-])OCC[N+](C)(C)C (stereo not shown)
174.9

###

Overview of recorded residual activity 1A6 for various compounds
Biological target: UniProtKB P19224
Sequence (P19224 27-532): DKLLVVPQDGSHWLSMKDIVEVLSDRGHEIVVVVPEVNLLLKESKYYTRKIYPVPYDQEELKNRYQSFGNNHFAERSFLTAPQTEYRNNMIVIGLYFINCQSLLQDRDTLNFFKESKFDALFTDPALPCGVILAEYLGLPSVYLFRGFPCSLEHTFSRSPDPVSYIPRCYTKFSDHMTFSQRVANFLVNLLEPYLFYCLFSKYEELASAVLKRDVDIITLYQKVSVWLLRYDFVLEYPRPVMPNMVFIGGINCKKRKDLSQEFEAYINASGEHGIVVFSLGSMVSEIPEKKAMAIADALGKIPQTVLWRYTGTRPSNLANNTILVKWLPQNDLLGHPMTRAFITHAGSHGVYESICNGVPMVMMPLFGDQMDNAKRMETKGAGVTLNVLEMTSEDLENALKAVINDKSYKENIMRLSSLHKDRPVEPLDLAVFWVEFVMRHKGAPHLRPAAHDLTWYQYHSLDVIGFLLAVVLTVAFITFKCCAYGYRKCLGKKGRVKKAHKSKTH
Details: 50 μM PC components; recombinant human UGT; mean of triplicate
The answer is to be given in %; state only the numeric part.

If you can, please state the reported residual activity 1A6 value of CCCCCCCCCCCCCCCCCCCC(=O)OC[C@H](COP(=O)([O-])OCC[N+](C)(C)C)OC(=O)CCCCCCCCCCCCCCCCCCC [PC 20:0, 20:0] .
88.2

Entry CCCCCCCCCCCCCCCCCCCCC(=O)OC[C@H](COP(=O)([O-])OCC[N+](C)(C)C)OC(=O)CCCCCCCCCCCCCCCCCCCC [PC 21:0, 21:0] has what residual activity 1A6?
85.4

What residual activity 1A6 value was documented for this compound, CCCCCCCC(=O)OC[C@H](COP(=O)([O-])OCC[N+](C)(C)C)OC(=O)CCCCCCC [PC 8:0, 8:0] ?
25.6

What residual activity 1A6 value was documented for this compound, CCCCCCCCCCCC(=O)OC[C@H](COP(=O)([O-])OCC[N+](C)(C)C)OC(=O)CCCCCCCCCCC [PC 12:0, 12:0] ?
40.8

Recorded residual activity 1A6 for CCCCCCCCCCCCCCCCCCCCCCC(=O)OC[C@H](COP(=O)([O-])OCC[N+](C)(C)C)OC(=O)CCCCCCCCCCCCCCCCCCCCCC [PC 23:0, 23:0] , please?
98.9

Given the compound CCCCCCCCCCCCC(=O)OC[C@H](COP(=O)([O-])OCC[N+](C)(C)C)OC(=O)CCCCCCCCCCCC [PC 13:0, 13:0] , what is its reported residual activity 1A6?
56.5

What residual activity 1A6 value was documented for this compound, CCCCCCC(=O)OC[C@H](COP(=O)([O-])OCC[N+](C)(C)C)OC(=O)CCCCCC [PC 7:0, 7:0] ?
50.7

Item under review: CCCCCCCCCCCCCCCCC(=O)OC[C@H](COP(=O)([O-])OCC[N+](C)(C)C)OC(=O)CCCCCCCCCCCCCCCC [PC 17:0, 17:0] . Reported residual activity 1A6?
49.1

Which residual activity 1A6 value is on record for CCCCCCCCCC(=O)OC[C@H](COP(=O)([O-])OCC[N+](C)(C)C)OC(=O)CCCCCCCCC [PC 10:0, 10:0] ?
23.2

Which measured residual activity 1A6 value corresponds to CCCCCCCCCCCCCCC(=O)OC[C@H](COP(=O)([O-])OCC[N+](C)(C)C)OC(=O)CCCCCCCCCCCCCC [PC 15:0, 15:0] ?
55.0

Find the recorded residual activity 1A6 belonging to CCCCCCCCCCCCCCCCCCCCCC(=O)OC[C@H](COP(=O)([O-])OCC[N+](C)(C)C)OC(=O)CCCCCCCCCCCCCCCCCCCCC [PC 22:0, 22:0] and report it.
60.2

Recorded residual activity 1A6 of CCCCCCCCCCCCCC(=O)OC[C@H](COP(=O)([O-])OCC[N+](C)(C)C)OC(=O)CCCCCCCCCCCCC [PC 14:0, 14:0] , please.
54.3

If you can, please state the reported residual activity 1A6 value of CCCCCCCCCCC(=O)OC[C@H](COP(=O)([O-])OCC[N+](C)(C)C)OC(=O)CCCCCCCCCC [PC 11:0, 11:0] .
35.0

Each recorded value in this set is attributed to paper PMC6631349.
